# SYSTEM: Tubulin (Sus scrofa) (UniProt P02554+P02550)
# Sequence (P02550 whole entry, looked up): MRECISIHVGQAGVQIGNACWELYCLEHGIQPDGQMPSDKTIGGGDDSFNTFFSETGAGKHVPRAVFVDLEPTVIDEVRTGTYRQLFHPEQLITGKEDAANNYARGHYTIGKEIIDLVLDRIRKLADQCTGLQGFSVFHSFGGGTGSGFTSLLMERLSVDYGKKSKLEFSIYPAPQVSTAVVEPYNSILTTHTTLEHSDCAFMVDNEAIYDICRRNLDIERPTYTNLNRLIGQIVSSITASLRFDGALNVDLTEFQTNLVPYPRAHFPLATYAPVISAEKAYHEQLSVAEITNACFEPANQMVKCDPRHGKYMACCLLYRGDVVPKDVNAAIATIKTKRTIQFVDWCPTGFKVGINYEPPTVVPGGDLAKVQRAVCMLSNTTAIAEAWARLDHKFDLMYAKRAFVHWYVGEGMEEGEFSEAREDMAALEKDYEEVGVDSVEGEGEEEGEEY
# Sequence (P02554 whole entry, looked up): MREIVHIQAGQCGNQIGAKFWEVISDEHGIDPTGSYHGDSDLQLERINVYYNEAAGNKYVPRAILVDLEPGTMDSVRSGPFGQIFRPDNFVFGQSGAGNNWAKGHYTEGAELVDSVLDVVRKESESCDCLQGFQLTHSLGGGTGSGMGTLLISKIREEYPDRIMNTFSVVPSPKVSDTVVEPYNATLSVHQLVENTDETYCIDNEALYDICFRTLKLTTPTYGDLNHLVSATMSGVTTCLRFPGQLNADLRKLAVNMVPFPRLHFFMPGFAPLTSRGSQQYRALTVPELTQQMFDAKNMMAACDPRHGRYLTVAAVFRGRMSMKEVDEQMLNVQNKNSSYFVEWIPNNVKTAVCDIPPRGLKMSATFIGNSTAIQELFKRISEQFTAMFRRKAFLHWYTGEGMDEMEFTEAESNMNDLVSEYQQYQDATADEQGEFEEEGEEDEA
# PROTOCOL NOTES: Induction of pig brain tubulin polymerization at 5 uM
MEASURED ENDPOINT: % tubulin polymerization (%)
Output spec: scalar in %, unitless text.

// below: answered compounds
CHEMICAL SMILES | UOM | % tubulin polymerization
C/C(=C\c1csc(C)n1)[C@@H]1C[C@@H]2O[C@@H]2CCC[C@H](C)[C@H](OC(=O)CCCCC(=O)O[C@H]2[C@@H](C)CCC[C@H]3O[C@H]3C[C@@H](/C(C)=C/c3csc(C)n3)OC(=O)C[C@H](O)C(C)(C)C(=O)[C@@H]2C)[C@@H](C)C(=O)C(C)(C)[C@@H](O)CC(=O)O1 | % | 0.2
C/C(=C\c1csc(C)n1)[C@@H]1C[C@@H]2O[C@@H]2CCC[C@H](C)[C@H](OC(=O)CSSCC(=O)O[C@H]2[C@@H](C)CCC[C@H]3O[C@H]3C[C@@H](/C(C)=C/c3csc(C)n3)OC(=O)C[C@H](O)C(C)(C)C(=O)[C@@H]2C)[C@@H](C)C(=O)C(C)(C)[C@@H](O)CC(=O)O1 | % | 0.3
C/C(=C\c1csc(C)n1)[C@@H]1C[C@@H]2O[C@@H]2CCC[C@H](C)[C@H](OC(=O)CCCCCCCCC(=O)O[C@H]2[C@@H](C)CCC[C@H]3O[C@H]3C[C@@H](/C(C)=C/c3csc(C)n3)OC(=O)C[C@H](O)C(C)(C)C(=O)[C@@H]2C)[C@@H](C)C(=O)C(C)(C)[C@@H](O)CC(=O)O1 | % | 0.1
C/C(=C\c1csc(C)n1)[C@@H]1C[C@@H]2O[C@@H]2CCC[C@H](C)[C@H](O)[C@@H](C)C(=O)C(C)(C)[C@@H](O)CC(=O)O1 | % | 92.2
C/C(=C\c1csc(C)n1)[C@@H]1C[C@@H]2O[C@@H]2CCC[C@H](C)[C@H](OC(=O)CCSSCCC(=O)O[C@H]2[C@@H](C)CCC[C@H]3O[C@H]3C[C@@H](/C(C)=C/c3csc(C)n3)OC(=O)C[C@H](O)C(C)(C)C(=O)[C@@H]2C)[C@@H](C)C(=O)C(C)(C)[C@@H](O)CC(=O)O1 | % | 0

Enquiry: Entry C/C(=C\c1csc(C)n1)[C@@H]1C[C@@H]2O[C@@H]2CCC[C@H](C)[C@H](OC(=O)CCCSSCCCC(=O)O[C@H]2[C@@H](C)CCC[C@H]3O[C@H]3C[C@@H](/C(C)=C/c3csc(C)n3)OC(=O)C[C@H](O)C(C)(C)C(=O)[C@@H]2C)[C@@H](C)C(=O)C(C)(C)[C@@H](O)CC(=O)O1 needs its % tubulin polymerization filled in; supply it.
Return: 0.5

Enquiry: Entry C/C(=C\c1csc(C)n1)[C@@H]1C[C@@H]2O[C@@H]2CCC[C@H](C)[C@H](OC(=O)CCCCCCC(=O)O[C@H]2[C@@H](C)CCC[C@H]3O[C@H]3C[C@@H](/C(C)=C/c3csc(C)n3)OC(=O)C[C@H](O)C(C)(C)C(=O)[C@@H]2C)[C@@H](C)C(=O)C(C)(C)[C@@H](O)CC(=O)O1 needs its % tubulin polymerization filled in; supply it.
Return: 0.7

* * *

# SYSTEM: Tubulin (Sus scrofa) (UniProt P02554+P02550)
# PROTOCOL NOTES: Induction of pig brain tubulin polymerization at 10 uM
MEASURED ENDPOINT: % tubulin polymerization (%)
Output spec: scalar in %, unitless text.

MOLECULE | REPORTED VALUE
C/C(=C\c1csc(C)n1)[C@@H]1C[C@@H]2O[C@@H]2CCC[C@H](C)[C@H](O)[C@@H](C)C(=O)C(C)(C)[C@@H](O)CC(=O)O1 [EPOTHILONE A] | 99.8
C/C(=C\c1csc(C)n1)[C@@H]1C[C@@H]2O[C@@H]2CCC[C@H](C)[C@H](OC(=O)CCCCCCCCC(=O)O[C@H]2[C@@H](C)CCC[C@H]3O[C@H]3C[C@@H](/C(C)=C/c3csc(C)n3)OC(=O)C[C@H](O)C(C)(C)C(=O)[C@@H]2C)[C@@H](C)C(=O)C(C)(C)[C@@H](O)CC(=O)O1 | 0.6
C/C(=C\c1csc(C)n1)[C@@H]1C[C@@H]2O[C@@H]2CCC[C@H](C)[C@H](OC(=O)CCSSCCC(=O)O[C@H]2[C@@H](C)CCC[C@H]3O[C@H]3C[C@@H](/C(C)=C/c3csc(C)n3)OC(=O)C[C@H](O)C(C)(C)C(=O)[C@@H]2C)[C@@H](C)C(=O)C(C)(C)[C@@H](O)CC(=O)O1 | 0.2
C/C(=C\c1csc(C)n1)[C@@H]1C[C@@H]2O[C@@H]2CCC[C@H](C)[C@H](OC(=O)CSSCC(=O)O[C@H]2[C@@H](C)CCC[C@H]3O[C@H]3C[C@@H](/C(C)=C/c3csc(C)n3)OC(=O)C[C@H](O)C(C)(C)C(=O)[C@@H]2C)[C@@H](C)C(=O)C(C)(C)[C@@H](O)CC(=O)O1 | 1

Enquiry: Entry C/C(=C\c1csc(C)n1)[C@@H]1C[C@@H]2O[C@@H]2CCC[C@H](C)[C@H](OC(=O)CCCSSCCCC(=O)O[C@H]2[C@@H](C)CCC[C@H]3O[C@H]3C[C@@H](/C(C)=C/c3csc(C)n3)OC(=O)C[C@H](O)C(C)(C)C(=O)[C@@H]2C)[C@@H](C)C(=O)C(C)(C)[C@@H](O)CC(=O)O1 needs its % tubulin polymerization filled in; supply it.
Return: 0.2

Enquiry: Entry C/C(=C\c1csc(C)n1)[C@@H]1C[C@@H]2O[C@@H]2CCC[C@H](C)[C@H](OC(=O)CCCCC(=O)O[C@H]2[C@@H](C)CCC[C@H]3O[C@H]3C[C@@H](/C(C)=C/c3csc(C)n3)OC(=O)C[C@H](O)C(C)(C)C(=O)[C@@H]2C)[C@@H](C)C(=O)C(C)(C)[C@@H](O)CC(=O)O1 needs its % tubulin polymerization filled in; supply it.
Return: 0.7

Enquiry: Entry C/C(=C\c1csc(C)n1)[C@@H]1C[C@@H]2O[C@@H]2CCC[C@H](C)[C@H](OC(=O)CCCCCCC(=O)O[C@H]2[C@@H](C)CCC[C@H]3O[C@H]3C[C@@H](/C(C)=C/c3csc(C)n3)OC(=O)C[C@H](O)C(C)(C)C(=O)[C@@H]2C)[C@@H](C)C(=O)C(C)(C)[C@@H](O)CC(=O)O1 needs its % tubulin polymerization filled in; supply it.
Return: 0.3
